Numbers sourced from patent US20250215014A1.

Measured IC50 accompanies every entry in the list below.
- Target Under Test: UniProtKB Q13574
- Sequence (Q13574 whole entry): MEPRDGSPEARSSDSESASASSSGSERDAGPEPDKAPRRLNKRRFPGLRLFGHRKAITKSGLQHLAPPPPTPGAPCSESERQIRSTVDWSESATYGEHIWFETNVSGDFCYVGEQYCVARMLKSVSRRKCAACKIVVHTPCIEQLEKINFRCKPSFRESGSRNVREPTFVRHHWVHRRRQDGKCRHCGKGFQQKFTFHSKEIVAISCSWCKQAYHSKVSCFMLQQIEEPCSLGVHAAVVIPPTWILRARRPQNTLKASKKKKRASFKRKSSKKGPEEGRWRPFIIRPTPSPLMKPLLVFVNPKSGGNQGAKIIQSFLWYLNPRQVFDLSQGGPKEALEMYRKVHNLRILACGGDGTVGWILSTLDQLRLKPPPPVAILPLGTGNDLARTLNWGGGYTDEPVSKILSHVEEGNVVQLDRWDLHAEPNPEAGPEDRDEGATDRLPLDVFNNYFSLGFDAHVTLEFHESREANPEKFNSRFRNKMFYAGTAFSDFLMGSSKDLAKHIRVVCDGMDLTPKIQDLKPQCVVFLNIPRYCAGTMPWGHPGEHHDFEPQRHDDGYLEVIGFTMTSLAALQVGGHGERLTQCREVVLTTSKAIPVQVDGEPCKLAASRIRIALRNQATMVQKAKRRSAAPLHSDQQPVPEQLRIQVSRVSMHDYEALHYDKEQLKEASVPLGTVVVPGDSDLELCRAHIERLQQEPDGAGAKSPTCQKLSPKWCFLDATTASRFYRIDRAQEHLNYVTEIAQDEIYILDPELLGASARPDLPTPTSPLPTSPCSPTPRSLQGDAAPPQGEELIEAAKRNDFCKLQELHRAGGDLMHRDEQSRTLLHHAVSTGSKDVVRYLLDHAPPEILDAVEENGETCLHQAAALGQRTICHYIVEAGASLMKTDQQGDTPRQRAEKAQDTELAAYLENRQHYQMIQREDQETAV

Example results:
• CC[C@@H]1CN2c3c(c(=O)n(C)c4ccc(C#N)nc34)OC[C@@H]2CN1[C@@H](CC)c1ccc(SC(F)(F)F)cc1 = 100 to 1000 nM
• CC[C@@H]1C[C@@]2(CCN1c1nc(=O)n(C)c3ccc(C#N)nc13)CC(c1ccc(OC(F)(F)F)cc1)=NO2 (stereo in doubt) = 100 to 1000 nM
• CC[C@H]1CN([C@H](CC)c2cccc(C(F)(F)F)c2)[C@H](CC)CN1c1nc2nncn2c2ccc(C#N)nc12 (stereo in doubt) = 100 to 1000 nM
• CC[C@@H]1C[C@H](c2nc3cc(C)ccc3o2)CCN1c1nc(=O)n(C)c2cc(O[C@@H]3CCOC3)c(Cl)cc12 = < 100 nM
• CC[C@H]1CN([C@@H](CC)c2ccc(S(F)(F)(F)(F)F)cc2)[C@H](CC)CN1c1nc(=O)n2c3c(cc(C#N)nc13)OCC2 (stereo in doubt) = 100 to 1000 nM
• CC[C@@H]1CN2c3c(c(=O)n(C)c4ccc(C#N)nc34)OC[C@@H]2CN1[C@H](CC)c1ccc(C(F)(F)F)cc1 = < 100 nM
• CC[C@H]1CN([C@H]2CCCCc3cc(C(F)(F)F)ccc32)[C@H](CC)CN1c1nc2nncn2c2ccc(C#N)nc12 = 100 to 1000 nM
• CC[C@H]1CN([C@H](CC)c2ccc(C(F)(F)F)cc2)[C@H](CC)CN1c1nc2nncn2c2ccc(C#N)nc12 (single isomer, unassigned) = 100 to 1000 nM
• Cn1c(=O)c(C(N)=O)c(N2CCC3(CCN(c4ccc(OC(F)(F)F)cc4)C3)CC2)c2nc(C#N)ccc21 = 100 to 1000 nM
• CC[C@H]1CN([C@@H](CC)c2ccc(OC(F)(F)F)cc2)[C@H](CC)CN1c1nc2nncn2c2ccc(C#N)nc12 (single isomer, unassigned) = < 100 nM

For the record CC[C@H]1CN([C@H](c2ccc(SC(F)(F)F)cc2)c2nc(C3CC3)no2)[C@H](CC)CN1c1nc(=O)n(C)c2ccc(C#N)nc12 (stereo in doubt) , what value of IC50 is listed for UniProtKB Q13574?
< 100 nM

For the record CC[C@H]1CN([C@@H](CC)c2ccc(C(F)(F)F)cc2)[C@H](CC)CN1c1nc2nncn2c2ccc(C#N)nc12 (single isomer, unassigned) [Compound 109] , what value of IC50 is listed for UniProtKB Q13574?
< 100 nM

For the record CC[C@@H]1CN(c2nc3nncn3c3ccc(C#N)nc23)[C@@H](C)CN1[C@@H](CC)c1ccc(C(F)(F)F)cc1 (single isomer, unassigned) , what value of IC50 is listed for UniProtKB Q13574?
< 100 nM

For the record Cn1c(=O)nc(N2CCC3(CC2)COC(c2ccc(OC(F)(F)F)cc2)=N3)c2nc(Cl)ccc21 , what value of IC50 is listed for UniProtKB Q13574?
100 to 1000 nM

For the record Cn1c(=O)nc(N2CCC(Oc3ccc(OC(F)(F)F)cc3)CC2)c2nc(C#N)ccc21 , what value of IC50 is listed for UniProtKB Q13574?
100 to 1000 nM

For the record CC[C@H]1CN([C@@H](CC)c2ccc(S(F)(F)(F)(F)F)cc2)[C@H](CC)CN1c1nc(=O)n(C)c2ccc(C#N)nc12 , what value of IC50 is listed for UniProtKB Q13574?
< 100 nM

For the record CC[C@H]1C[C@@H](Oc2ccc(OC(F)(F)F)cc2)CCN1c1nc(=O)n(C)c2ccc(C#N)nc12 , what value of IC50 is listed for UniProtKB Q13574?
100 to 1000 nM

For the record CC[C@@H]1CN2c3c(c(=O)n(C)c4ccc(C#N)nc34)OC[C@@H]2CN1[C@H](CC)c1ccc(SC(F)(F)F)cc1 , what value of IC50 is listed for UniProtKB Q13574?
100 to 1000 nM

For the record CC[C@H]1CN([C@H](C)c2ccc(S(F)(F)(F)(F)F)cc2)[C@H](CC)CN1c1nc2nncn2c2ccc(C#N)nc12 (stereo in doubt) , what value of IC50 is listed for UniProtKB Q13574?
100 to 1000 nM
